# System Under Test: human epidermal growth factor receptor 2 (HER2) (human, UniProt P04626 23-1255)
# Measurement Notes: cell-based or functional assay
# key: entry, value: EC50, fab-CypHer5E internalization assay, AU565 cells
Kindly provide the numeric value in mg/L only, without the unit symbol.

Here are 6 binders together with their reported answers.
• HER2 HuMab 132 (antibody, V domains shown, also called PC1014-132) VH: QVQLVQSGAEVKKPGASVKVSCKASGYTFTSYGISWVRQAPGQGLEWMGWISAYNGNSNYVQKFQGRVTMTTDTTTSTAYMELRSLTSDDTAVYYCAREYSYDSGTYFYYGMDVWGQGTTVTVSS VL: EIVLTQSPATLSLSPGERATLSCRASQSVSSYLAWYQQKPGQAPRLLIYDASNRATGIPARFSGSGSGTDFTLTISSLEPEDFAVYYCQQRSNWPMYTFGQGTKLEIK = 0.0114
• HER2 HuMab 091 (antibody, V domains shown, also called PC1014-091) VH: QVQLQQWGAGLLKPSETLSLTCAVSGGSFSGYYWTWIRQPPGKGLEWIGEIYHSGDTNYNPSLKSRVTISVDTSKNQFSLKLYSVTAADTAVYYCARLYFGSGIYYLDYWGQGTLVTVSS VL: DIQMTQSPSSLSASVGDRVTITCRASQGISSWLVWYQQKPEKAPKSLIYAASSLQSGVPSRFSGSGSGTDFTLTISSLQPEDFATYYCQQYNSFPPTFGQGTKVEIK = 0.033
• HER2 HuMab 098 (antibody, V domains shown, also called PC1014-098; TH1014-098) VH: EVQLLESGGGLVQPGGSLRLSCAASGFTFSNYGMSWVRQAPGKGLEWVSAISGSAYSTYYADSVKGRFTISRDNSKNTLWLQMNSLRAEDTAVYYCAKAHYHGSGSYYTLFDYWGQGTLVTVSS VL: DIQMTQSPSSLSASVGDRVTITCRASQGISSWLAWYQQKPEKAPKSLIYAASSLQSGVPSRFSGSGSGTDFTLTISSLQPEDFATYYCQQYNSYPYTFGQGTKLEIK = 0.0138
• HER2 HuMab 059 (antibody, V domains shown, also called PC1014-059) VH: QVQLVQSGAEVKKPGASVRVPCKASGYTFTRYGISWVRQAPGQGLEWMGWISAYNGKTYYAQKLQGRVTMTTDTSTSTAYMELRSLRSDDTAVYYCARSPLLWFEELYFDYWGQGTLVTVSS VL: EIVLTQSPGTLSLSPGERATLSCRASQSVSSTYLAWYQQKPGQAPRLLIYGASSRATGIPDRFSGSGSGTDFTLTISRLEPEDFAVYYCQQYGTSLFTFGPGTKVDIK = 0.0148
• HER2 HuMab 129 (antibody, V domains shown, also called PC1014-129) VH: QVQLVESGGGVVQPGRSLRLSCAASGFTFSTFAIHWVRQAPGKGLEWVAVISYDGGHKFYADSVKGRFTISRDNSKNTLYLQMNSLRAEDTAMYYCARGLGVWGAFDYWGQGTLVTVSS VL: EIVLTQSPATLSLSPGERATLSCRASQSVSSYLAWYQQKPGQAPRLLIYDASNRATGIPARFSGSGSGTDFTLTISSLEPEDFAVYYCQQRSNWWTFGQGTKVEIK = 0.00715
• HER2 HuMab 084 (antibody, V domains shown, also called PC1014-084) VH: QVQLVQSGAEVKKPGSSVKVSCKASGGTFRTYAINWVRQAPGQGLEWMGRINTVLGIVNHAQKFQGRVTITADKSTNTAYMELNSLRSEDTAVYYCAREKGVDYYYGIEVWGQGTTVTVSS VL: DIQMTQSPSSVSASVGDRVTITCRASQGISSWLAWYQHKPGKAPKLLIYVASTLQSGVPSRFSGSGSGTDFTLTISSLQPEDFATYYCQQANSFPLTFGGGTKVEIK = 0.0305

Now examine the next entry.
For HER2 HuMab 025 (antibody, V domains shown, also called PC1014-025; TH1014-025) VH: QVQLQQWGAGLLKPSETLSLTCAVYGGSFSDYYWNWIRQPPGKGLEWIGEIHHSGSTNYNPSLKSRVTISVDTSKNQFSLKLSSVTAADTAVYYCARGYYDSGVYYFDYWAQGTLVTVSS VL: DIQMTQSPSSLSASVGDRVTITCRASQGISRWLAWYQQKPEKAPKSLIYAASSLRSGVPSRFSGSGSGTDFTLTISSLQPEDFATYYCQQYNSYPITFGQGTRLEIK the binder record lists EC50, fab-CypHer5E internalization assay, AU565 cells as 0.0301
